Quick reference: Ki of the listed items.
Molecular target: delta opioid receptor (Rattus norvegicus, UniProt P33533)
Sequence (P33533 whole entry): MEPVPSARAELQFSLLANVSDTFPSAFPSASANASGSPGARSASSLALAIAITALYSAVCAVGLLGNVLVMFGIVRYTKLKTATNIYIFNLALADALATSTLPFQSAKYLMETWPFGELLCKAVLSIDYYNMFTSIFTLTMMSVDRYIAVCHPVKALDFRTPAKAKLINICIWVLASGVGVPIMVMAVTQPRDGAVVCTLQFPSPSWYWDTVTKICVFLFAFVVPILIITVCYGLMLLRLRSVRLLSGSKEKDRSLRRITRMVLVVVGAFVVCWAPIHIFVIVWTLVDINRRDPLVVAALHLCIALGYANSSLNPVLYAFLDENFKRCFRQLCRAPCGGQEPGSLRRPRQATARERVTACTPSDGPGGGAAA
Assay: Rat Brain Delta Opioid Receptor Binding Assay
Conditions: rat forebrain membrane preparation; [3H]DPDPE or [3H]naltrindole, 25° C., 2.5 h
ASSAY METRIC: Ki

>>> readout_value("CC(=O)Nc1ccccc1-c1ccc2c(c1)Sc1ccccc1N2C1C[C@H]2CC[C@@H](C1)N2Cc1ncc[nH]1 (mixture of isomers) [Compound 15i]")
"0.63 µM"
>>> readout_value("CC(=O)Nc1ccccc1-c1ccc2c(c1)Sc1ccccc1N2C1C[C@H]2CC[C@@H](C1)N2C (mixture of isomers) [Compound 16i]")
"1.45 µM"
>>> readout_value("c1ccc2c(c1)Oc1cc(-c3ccncc3)ccc1N2[C@@H]1C[C@H]2CC[C@@H](C1)N2Cc1ccoc1")
"1.28 µM"
>>> readout_value("Brc1ccc2c(c1)Sc1ccccc1N2C1C[C@H]2CC[C@@H](C1)N2 (mixture of isomers)")
"0.881 µM"
>>> readout_value("c1cncc(-c2ccc3c(c2)Oc2ccccc2N3[C@H]2C[C@H]3CC[C@@H](C2)N3Cc2cccs2)c1")
"11.9 µM"
>>> readout_value("CC(C)=CCN1[C@@H]2CC[C@H]1CC(N1c3ccccc3Sc3cc(-c4ccncc4)ccc31)C2 (mixture of isomers) [Compound 10i]")
"0.949 µM"

* * *

Target: delta opioid receptor (Rattus norvegicus)
Assay: Rat Brain Delta Opioid Receptor Binding Assay
Settings: rat forebrain membrane preparation; [3H]DPDPE or [3H]naltrindole, 25° C., 2.5 h
Quick reference: Ki of the listed items.
ASSAY METRIC: Ki (nM)

>>> readout_value("CCN(CC)C(=O)c1ccc2c(c1)Oc1ccccc1N2[C@H]1C[C@H]2CC[C@@H](C1)N2CCc1ccccc1")
231
>>> readout_value("CCN(CC)C(=O)c1ccc2c(c1)Oc1ccccc1N2[C@@H]1C[C@H]2CC[C@@H](C1)N2CCc1ccccc1")
1360
>>> readout_value("c1ccc(CCN2[C@@H]3CC[C@H]2C[C@@H](N2c4ccccc4Oc4cc(-c5cccnc5)ccc42)C3)cc1")
3260
>>> readout_value("c1ccc(CN2[C@@H]3CC[C@H]2C[C@H](N2c4ccccc4Oc4cc(-c5ccncc5)ccc42)C3)nc1")
869

* * *

Target: delta opioid receptor (Rattus norvegicus)
Construct: from tissue; host or cells: rat forebrain homogenate (male Wistar rats), particulate membrane preparation
Experiment: Rat Brain Delta Opioid Receptor Binding Assay
Details: rat forebrain membrane preparation; [3H]DPDPE or [3H]naltrindole, 25° C., 2.5 h
Labelling: Ki reported below 700 nM becomes fulfilled; at or above becomes not fulfilled.

>>> category_label("c1csc(CN2[C@@H]3CC[C@H]2C[C@@H](N2c4ccccc4Oc4cc(-c5ccncc5)ccc42)C3)c1")
"not fulfilled"
>>> category_label("c1csc(CN2[C@@H]3CC[C@H]2CC(N2c4ccccc4Sc4cc(-c5ccncc5)ccc42)C3)c1 (mixture of isomers) [Compound 12i]")
"fulfilled"
>>> category_label("c1ccc(CN2[C@@H]3CC[C@H]2C[C@@H](N2c4ccccc4Oc4cc(-c5ccncc5)ccc42)C3)nc1")
"fulfilled"
>>> category_label("N#Cc1ccc2c(c1)Sc1ccccc1N2C1C[C@H]2CC[C@@H](C1)N2 (mixture of isomers)")
"not fulfilled"
>>> category_label("CC(C)=CCN1[C@@H]2CC[C@H]1CC(N1c3ccccc3Sc3cc(-c4cccnc4)ccc31)C2 (mixture of isomers)")
"fulfilled"
>>> category_label("c1ccc2c(c1)Oc1cc(-c3ccncc3)ccc1N2[C@@H]1C[C@H]2CC[C@@H](C1)N2")
"fulfilled"
>>> category_label("c1ccc(CCN2[C@@H]3CC[C@H]2C[C@H](N2c4ccccc4Oc4cc(-c5ccncc5)ccc42)C3)cc1")
"fulfilled"

* * *

Molecular target: mu opioid receptor (Rattus norvegicus, UniProt P33535)
Sequence (P33535 whole entry): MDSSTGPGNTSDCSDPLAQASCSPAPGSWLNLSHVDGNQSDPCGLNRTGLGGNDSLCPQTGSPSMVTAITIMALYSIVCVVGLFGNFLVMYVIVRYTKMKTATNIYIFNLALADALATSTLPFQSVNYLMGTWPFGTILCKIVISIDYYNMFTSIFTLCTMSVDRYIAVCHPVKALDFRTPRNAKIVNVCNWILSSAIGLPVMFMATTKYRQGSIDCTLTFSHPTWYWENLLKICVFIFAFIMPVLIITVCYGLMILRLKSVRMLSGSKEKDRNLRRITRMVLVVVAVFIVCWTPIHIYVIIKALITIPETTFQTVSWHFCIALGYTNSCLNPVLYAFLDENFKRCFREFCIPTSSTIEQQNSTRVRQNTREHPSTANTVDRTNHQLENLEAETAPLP
pKi: −log10 of the molar value.
ASSAY METRIC: pKi

>>> readout_value("CC(C)=CCN1[C@@H]2CC[C@H]1CC(N1c3ccccc3Sc3cc(-c4cccnc4)ccc31)C2 (mixture of isomers)")
6.05
>>> readout_value("Brc1ccc2c(c1)Sc1ccccc1N2C1C[C@H]2CC[C@@H](C1)N2 (mixture of isomers)")
5.18
>>> readout_value("CC(=O)Nc1ccccc1-c1ccc2c(c1)Sc1ccccc1N2C1C[C@H]2CC[C@@H](C1)N2Cc1ccoc1 (mixture of isomers)")
6.26
>>> readout_value("CN(CCc1ccccc1)C(=O)c1ccc2c(c1)Oc1ccccc1N2C1CC2CCC(C1)N2C (stereo not shown)")
6.09

* * *

Target: delta opioid receptor (Rattus norvegicus)
Construct: from tissue; host or cells: rat forebrain homogenate (male Wistar rats), particulate membrane preparation
Test: Rat Brain Delta Opioid Receptor Binding Assay
Conditions: rat forebrain membrane preparation; [3H]DPDPE or [3H]naltrindole, 25° C., 2.5 h
ASSAY METRIC: Ki

>>> readout_value("CN1C2CCC1CC(N1c3ccccc3Oc3cc(-c4noc(=O)[nH]4)ccc31)C2 (stereo not shown) [Compound 2h]")
"0.598 µM"
>>> readout_value("c1cncc(-c2ccc3c(c2)Oc2ccccc2N3[C@@H]2C[C@H]3CC[C@@H](C2)N3)c1 [Compound 3l]")
"0.729 µM"
>>> readout_value("c1cncc(-c2ccc3c(c2)Oc2ccccc2N3[C@H]2C[C@H]3CC[C@@H](C2)N3)c1 [Compound 5j]")
"0.409 µM"
>>> readout_value("c1ccc(CCN2[C@@H]3CC[C@H]2CC(N2c4ccccc4Oc4cc(-c5nnn[nH]5)ccc42)C3)cc1 (stereo partly shown) [Compound 7b]")
"5.48 µM"
>>> readout_value("c1ccc(CN2[C@@H]3CC[C@H]2C[C@@H](N2c4ccccc4Oc4cc(-c5cccnc5)ccc42)C3)nc1 [Compound 7j]")
"0.104 µM"
>>> readout_value("c1ccc(CN2[C@@H]3CC[C@H]2CC(N2c4ccccc4Sc4cc(-c5cccnc5)ccc42)C3)nc1 (mixture of isomers) [Compound 9i]")
"0.649 µM"
>>> readout_value("c1ccc2c(c1)Oc1cc(-c3ccncc3)ccc1N2[C@H]1C[C@H]2CC[C@@H](C1)N2Cc1ccoc1 [Compound 5k]")
"0.247 µM"

* * *

Target: delta opioid receptor (Rattus norvegicus)
Experiment: Rat Brain Delta Opioid Receptor Binding Assay
Conditions: rat forebrain membrane preparation; [3H]DPDPE or [3H]naltrindole, 25° C., 2.5 h
Labelling: Ki reported below 600 nM becomes 1; at or above becomes -1.

>>> category_label("c1ccc(CN2[C@@H]3CC[C@H]2C[C@H](N2c4ccccc4Oc4cc(-c5cccnc5)ccc42)C3)nc1")
1
>>> category_label("N#Cc1ccc2c(c1)Oc1ccccc1N2[C@H]1C[C@H]2CC[C@@H](C1)N2")
-1
>>> category_label("Oc1cccc2c1Oc1cc(-c3ccncc3)ccc1N2[C@H]1C[C@H]2CC[C@@H](C1)N2CCc1ccccc1 [Compound 10v]")
-1
>>> category_label("c1ccc(CCN2[C@@H]3CC[C@H]2C[C@@H](N2c4ccccc4Oc4cc(-c5ccncc5)ccc42)C3)cc1")
-1
>>> category_label("CC(=O)Nc1ccccc1-c1ccc2c(c1)Oc1ccccc1N2[C@H]1C[C@H]2CC[C@@H](C1)N2CCc1ccccc1")
-1
>>> category_label("CN(CCc1ccccc1)C(=O)c1ccc2c(c1)Oc1ccccc1N2C1CC2CCC(C1)N2C (centres unmarked)")
1
>>> category_label("c1cncc(-c2ccc3c(c2)Sc2ccccc2N3C2C[C@H]3CC[C@@H](C2)N3Cc2ccoc2)c1 (mixture of isomers)")
1
>>> category_label("CC(=O)Nc1ccccc1-c1ccc2c(c1)Oc1ccccc1N2[C@H]1C[C@H]2CC[C@@H](C1)N2Cc1cccs1")
1
>>> category_label("CC(=O)Nc1ccccc1-c1ccc2c(c1)Sc1ccccc1N2C1C[C@H]2CC[C@@H](C1)N2CCc1ccccc1 (mixture of isomers) [Compound 14i]")
-1
>>> category_label("CC(=O)Nc1ccccc1-c1ccc2c(c1)Sc1ccccc1N2C1C[C@H]2CC[C@@H](C1)N2Cc1ccoc1 (mixture of isomers)")
1
>>> category_label("COc1cccc2c1Oc1cc(-c3ccncc3)ccc1N2[C@H]1C[C@H]2CC[C@@H](C1)N2CCc1ccccc1 [Compound 13v]")
-1
>>> category_label("c1ccc(CCN2[C@@H]3CC[C@H]2C[C@H](N2c4ccccc4Oc4cc(-c5cccnc5)ccc42)C3)cc1")
1
>>> category_label("C=CCN1[C@@H]2CC[C@H]1CC(N1c3ccccc3Sc3cc(-c4ccccc4NC(C)=O)ccc31)C2 (mixture of isomers) [Compound 13i]")
1
>>> category_label("O=c1[nH]c(-c2ccc3c(c2)Oc2ccccc2N3[C@H]2C[C@H]3CC[C@@H](C2)N3CCc2ccccc2)no1")
-1

* * *

Target: mu opioid receptor (Rattus norvegicus, UniProt P33535)
So basically, the class depends on measured Ki, and the ranges are interval 1: < 300 nM; interval 2: ≥ 300 nM and < 3000 nM; interval 3: ≥ 3000 nM

>>> category_label("CN1C2CCC1CC(N1c3ccccc3Oc3cc(-c4noc(=O)[nH]4)ccc31)C2 (stereo not shown)")
"interval 2"
>>> category_label("c1cncc(-c2ccc3c(c2)Sc2ccccc2N3C2C[C@H]3CC[C@@H](C2)N3Cc2ccoc2)c1 (mixture of isomers)")
"interval 2"
>>> category_label("c1csc(CN2[C@@H]3CC[C@H]2CC(N2c4ccccc4Sc4cc(-c5ccncc5)ccc42)C3)c1 (mixture of isomers) [Compound 12i]")
"interval 2"
>>> category_label("CC(=O)Nc1ccccc1-c1ccc2c(c1)Sc1ccccc1N2C1C[C@H]2CC[C@@H](C1)N2C (mixture of isomers) [Compound 16i]")
"interval 2"
>>> category_label("CC(=O)Nc1ccccc1-c1ccc2c(c1)Sc1ccccc1N2C1C[C@H]2CC[C@@H](C1)N2Cc1ncc[nH]1 (mixture of isomers) [Compound 15i]")
"interval 1"
>>> category_label("CC(C)=CCN1[C@@H]2CC[C@H]1CC(N1c3ccccc3Sc3cc(-c4ccncc4)ccc31)C2 (mixture of isomers) [Compound 10i]")
"interval 2"
>>> category_label("c1ccc(CCN2[C@@H]3CC[C@H]2CC(N2c4ccccc4Oc4cc(-c5nnn[nH]5)ccc42)C3)cc1 (stereo partly shown)")
"interval 1"
>>> category_label("c1ccc(CN2[C@@H]3CC[C@H]2CC(N2c4ccccc4Sc4cc(-c5cccnc5)ccc42)C3)nc1 (mixture of isomers)")
"interval 2"
>>> category_label("CC(=O)Nc1ccccc1-c1ccc2c(c1)Sc1ccccc1N2C1C[C@H]2CC[C@@H](C1)N2CCc1ccccc1 (mixture of isomers) [Compound 14i]")
"interval 2"
>>> category_label("N#Cc1ccc2c(c1)Oc1ccccc1N2[C@H]1C[C@H]2CC[C@@H](C1)N2")
"interval 3"
>>> category_label("O=c1[nH]c(-c2ccc3c(c2)Oc2ccccc2N3[C@H]2C[C@H]3CC[C@@H](C2)N3CCc2ccccc2)no1")
"interval 1"
>>> category_label("COC(=O)c1ccc2c(c1)Oc1ccccc1N2C1CC2CCC(C1)N2C (stereo not shown)")
"interval 3"
>>> category_label("C=CCN1[C@@H]2CC[C@H]1CC(N1c3ccccc3Sc3cc(-c4ccccc4NC(C)=O)ccc31)C2 (mixture of isomers) [Compound 13i]")
"interval 3"
